src = paper PMC6875038

- assay: Stability of the ginsenosides in rat plasma (QC samples)
- Type: in vitro ADME
- conditions: extracted middle QC (142.4 Rb1, 62.5 Rb2, 48.8 Rd, 98.6 Re ng/mL); autosampler 4°C for 12 h
Reported Recovery (%) Postpreparation by item:
Form entry: value (%) — number only.

In: Give the reported value of Recovery (%) Postpreparation for this record: "CC(C)=CCC[C@](C)(O[C@@H]1O[C@H](CO[C@@H]2OC[C@H](O)[C@H](O)[C@H]2O)[C@@H](O)[C@H](O)[C@H]1O)[C@H]1CC[C@]2(C)[C@@H]1[C@H](O)C[C@@H]1[C@@]3(C)CC[C@H](O[C@@H]4O[C@H](CO)[C@@H](O)[C@H](O)[C@H]4O[C@@H]4O[C@H](CO)[C@@H](O)[C@H](O)[C@H]4O)C(C)(C)[C@@H]3CC[C@]12C"
Out: 99.94

In: Provide Recovery (%) Postpreparation value for the following compound: "CC(C)=CCC[C@](C)(O[C@@H]1O[C@H](CO[C@@H]2O[C@H](CO)[C@@H](O)[C@H](O)[C@H]2O)[C@@H](O)[C@H](O)[C@H]1O)[C@H]1CC[C@]2(C)[C@@H]1[C@H](O)C[C@@H]1[C@@]3(C)CC[C@H](O[C@@H]4O[C@H](CO)[C@@H](O)[C@H](O)[C@H]4O[C@@H]4O[C@H](CO)[C@@H](O)[C@H](O)[C@H]4O)C(C)(C)[C@@H]3CC[C@]12C"
Out: 101.65

In: Return the recorded Recovery (%) Postpreparation value; entry: "CC(C)=CCC[C@](C)(O[C@@H]1O[C@H](CO)[C@@H](O)[C@H](O)[C@H]1O)[C@H]1CC[C@]2(C)[C@@H]1[C@H](O)C[C@@H]1[C@@]3(C)CC[C@H](O[C@@H]4O[C@H](CO)[C@@H](O)[C@H](O)[C@H]4O[C@@H]4O[C@H](CO)[C@@H](O)[C@H](O)[C@H]4O)C(C)(C)[C@@H]3CC[C@]12C"
Out: 101.71
